target: T1, Recombinant CD3epsilon/delta Fc fusion protein (Sino Biological) (human, UniProt P07766 23-126; P04234 22-105); assay: SPR (ProteOn XPR36), CD3epsilon/delta Fc fusion captured on anti-Fc chip, variant injected for 240 s; kinetic constants printed above the sensorgrams
T1 construct: Bought reagent; also called recombinant CD3 fusion protein; human CD3 antigen; not shown: Fc of the bought fusion protein; not described
T1 sequence (P07766 23-126, stated change not applied, chain 1 of 2): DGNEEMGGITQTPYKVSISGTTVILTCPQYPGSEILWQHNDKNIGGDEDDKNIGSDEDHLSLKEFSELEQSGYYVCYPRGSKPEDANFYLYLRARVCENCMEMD
T1 sequence (P04234 22-105, stated change not applied, chain 2 of 2): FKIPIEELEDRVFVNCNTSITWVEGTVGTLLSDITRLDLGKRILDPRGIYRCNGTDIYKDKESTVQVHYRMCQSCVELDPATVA
REPORTED PROPERTY: koff (s⁻¹)
Kindly answer with a numeric value in s⁻¹, unit omitted.

Short answer for variant 21831, monovalent anti-CD3 scFv-heterodimeric Fc (VL hC3E-1_1L1d, VH hC3E-1(N53S)) (Fc fusion, scFv order VH-(GGGGS)3-VL on Fc chain A; chain B is Fc only; also called v21831; not shown: Fc-only chain B is also left out) scFv: EVQLVESGGGLVQPGGSLRLSCAASGVTFNYYGMSWIRQAPGKGLEWVASITSSGGRIYYPDSVKGRFTISRENTQKTLYLQMNSLRAEDTAVYYCTLDGRDGWVAYWGQGTLVTVSSGGGGSGGGGSGGGGSQVVLTQPPSASGTPGQRVTISCKRNTGNIGSNYVNWYQQLPGTAPKLLIYRDDKRPDGVPDRFSGSKSGTSASLAISGLQSEDEADYYCQSYSSGFIFGGGTKLTVL : koff was 0.0225

Short answer for variant 19362, monovalent anti-CD3 scFv-heterodimeric Fc (VL hC3E-1_6L3b (D52N), VH hC3E-1) (Fc fusion, not shown: a dimerising Fc or GST; small tags and cut ends, scFv order VH-(GGGGS)3-VL on Fc chain A; chain B is Fc only; also called v19362) scFv: EVQLVESGGGLVQPGGSLRLSCAASGVTFNYYGMSWIRQAPGKGLEWVASITNSGGRIYYPDSVKGRFTISRENTQKTLYLQMNSLRAEDTAVYYCTLDGRDGWVAYWGQGTLVTVSSGGGGSGGGGSGGGGSNFMLTQPHSVSESPGKTVTISCKRNTGNIGSNYVNWYQQLPGTAPKTIIYRNDKRPDGVPDRFSGSIDSSSNSASLAISGLQSEDEADYYCQSYSSGFIFGGGTKLTVL : koff was 0.00242

Short answer for variant 19363, monovalent anti-CD3 scFv-heterodimeric Fc (VL hC3E-1_6L3a (D52N), VH hC3E-1) (Fc fusion, not shown: a dimerising Fc or GST; small tags and cut ends, scFv order VH-(GGGGS)3-VL on Fc chain A; chain B is Fc only; also called v19363) scFv: EVQLVESGGGLVQPGGSLRLSCAASGVTFNYYGMSWIRQAPGKGLEWVASITNSGGRIYYPDSVKGRFTISRENTQKTLYLQMNSLRAEDTAVYYCTLDGRDGWVAYWGQGTLVTVSSGGGGSGGGGSGGGGSQFVLTQPPSASGTPGQRVTISCKRNTGNIGSNYVNWYQQLPGTAPKTIIYRNDKRPDGVPDRFSGSIDSSSNSASLAISGLQSEDEADYYCQSYSSGFIFGGGTKLTVL : koff was 0.00383

Short answer for variant 18346, monovalent anti-CD3 scFv-heterodimeric Fc (VL hC3E-1 wildtype, VH hC3E-1 wildtype) (Fc fusion, scFv order VH-(GGGGS)3-VL on Fc chain A; chain B is Fc only; also called v18346; parental construct v18346; not shown: Fc-only chain B is also left out) scFv: EVQLVESGGGLVQPGGSLRLSCAASGVTFNYYGMSWIRQAPGKGLEWVASITNSGGRIYYPDSVKGRFTISRENTQKTLYLQMNSLRAEDTAVYYCTLDGRDGWVAYWGQGTLVTVSSGGGGSGGGGSGGGGSNFMLTQPHSVSESPGKTVTISCKRNTGNIGSNYVNWYQQHEGSSPTTIIYRDDKRPDGVSDRFSGSIDRSSKSASLTISNLKTEDEADYFCQSYSSGFIFGGGTKLTVL : koff was 0.000163
